# Test system: foxtail meadow
# protocol.description: Upland foliar application test (Test 3)
# Assay type: in vivo
# measurement.parameters: 30 g ai/a, foliar spray at 2-3 leaves, 30th day
Each entry below carries its recorded Herbicidal effects Foxtail meadow.

[
  {
    "chemical.string": "CCc1ccc(C=CCON=Cc2ccccc2Oc2nc(OC)cc(OC)n2)cc1",
    "target.desc": "foxtail meadow",
    "readout.kind": "Herbicidal effects Foxtail meadow",
    "result.value": "5 (0-5 (Death))"
  },
  {
    "chemical.string": "COc1cc(OC)nc(Oc2ccccc2C=NOCc2ccccc2)n1",
    "target.desc": "foxtail meadow",
    "readout.kind": "Herbicidal effects Foxtail meadow",
    "result.value": "4 (6-10 (Severe damages))"
  },
  {
    "chemical.string": "C=CCON=Cc1ccccc1Oc1nc(OC)cc(OC)n1",
    "target.desc": "foxtail meadow",
    "readout.kind": "Herbicidal effects Foxtail meadow",
    "result.value": "5 (0-5 (Death))"
  },
  {
    "chemical.string": "COc1cc(OC)nc(Oc2ccccc2C=NOCC=CCl)n1",
    "target.desc": "foxtail meadow",
    "readout.kind": "Herbicidal effects Foxtail meadow",
    "result.value": "5 (0-5 (Death))"
  }
]

Next compound, please.
Inquiry: Would you mind telling me what Herbicidal effects Foxtail meadow value was observed for COc1cc(OC)nc(Oc2ccccc2C=NOCC=Cc2ccc(C(F)(F)F)cc2)n1 ?
Reply text: 5 (0-5 (Death))
